Tested target: c-Src SH2;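 also: peptide library displayed on the E. coli surface as eCPX fusions, selected cells deep-sequenced, score is each peptide's frequency after selection divided by its frequency in the input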
Method: SH2 binding enrichment of the phosphorylated peptide, bacterial display (enrichment ratio); higher = better substrate or ligand; peptides without Tyr show the background
Please respond with reported SH2 binding enrichment for every item in the list.
Number only, no unit.

// fetch c-Src SH2 SH2 binding enrichment for LGQRIYQFIRS [DYRK1B_Y271_Q275R_YF] 2.21

Give SH2 binding enrichment (c-Src SH2) of the following sequence: PKEQKYSFLQD [GH1_Y68_N73D] 1.15

Item: HGDSAYHSQRH [ERBB3_Y1132_R1127H] Test system: c-Src SH2 Read-out: SH2 binding enrichment Value: ? 0.508

Request: SH2 binding enrichment, test system c-Src SH2, entry TRSFKYLLLSM [NF1_Y491_YF] 1.05

c-Src SH2 / SH2 binding enrichment / YRQLPYCPSVE [CTNND2_Y508_Q507P] : value? 0.494

Form field - read-out: SH2 binding enrichment; system: c-Src SH2; submitted item: AMIADYMFWLG [SPATA16_Y290] 0.806

Item: CQASLYPSNHD [LRIG1_Y996_G993A] Test system: c-Src SH2 Read-out: SH2 binding enrichment Value: ? 0.475

Query SH2 binding enrichment on c-Src SH2 for FPILNYKDIRK [CFAP221_Y798_M795I] 0.447

Lab note: need SH2 binding enrichment for LWPIWYRCRRP [MRGPRX1_Y130_H133R] on c-Src SH2, anyone have it? 0.421

Could you share what SH2 binding enrichment was measured for SVVVPYEPTEV [TP53_Y220_P223T] , tested on c-Src SH2? 0.864

Recorded SH2 binding enrichment for KNDSNYVVKGN [KIT_Y823] with c-Src SH2, please? 0.546

Form field - read-out: SH2 binding enrichment; system: c-Src SH2; submitted item: KKLAEYGPQGR [CLCA1_Y147] 0.546

Item: TIMTNYNPNYC [ALK_Y1092_D1091N] Test system: c-Src SH2 Read-out: SH2 binding enrichment Value: ? 0.591

Identify the measured SH2 binding enrichment of PMWHPYKVDVT [TP53TG5_Y255] for c-Src SH2. 0.436

* * *

Tested target: Fyn (UniProt P06241)
Sequence (P06241 whole entry, looked up): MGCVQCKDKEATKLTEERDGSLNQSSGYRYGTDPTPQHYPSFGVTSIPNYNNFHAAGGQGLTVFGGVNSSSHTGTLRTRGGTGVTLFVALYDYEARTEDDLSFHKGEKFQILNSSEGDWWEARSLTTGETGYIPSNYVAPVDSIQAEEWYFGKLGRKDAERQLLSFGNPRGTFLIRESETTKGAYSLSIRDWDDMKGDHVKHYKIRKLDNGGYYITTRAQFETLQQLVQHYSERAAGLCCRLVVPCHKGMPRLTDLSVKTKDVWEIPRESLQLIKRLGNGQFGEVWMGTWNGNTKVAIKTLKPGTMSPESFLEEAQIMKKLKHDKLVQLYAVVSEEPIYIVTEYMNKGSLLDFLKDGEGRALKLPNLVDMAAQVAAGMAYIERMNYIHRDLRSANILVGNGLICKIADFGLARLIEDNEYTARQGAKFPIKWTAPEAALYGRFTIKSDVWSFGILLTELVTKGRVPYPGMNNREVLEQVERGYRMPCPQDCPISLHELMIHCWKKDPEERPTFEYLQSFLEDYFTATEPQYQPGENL
Method: phosphorylation enrichment, bacterial display (enrichment ratio); higher = better substrate or ligand; peptides without Tyr show the background
Please enter Met where phosphorylation enrichment is greater than or equal to 0.5, and Not met where it is lower.

For this sequence, is measured phosphorylation enrichment 0.5 or higher? FPRAWYRRSIA [KIAA1109_Y4272] Not met

Is the recorded value of phosphorylation enrichment equal to or greater than 0.5 for this sequence? FRPPFYHRDCM [HGD_Y334_N337D_YF] Not met

# check: phosphorylation enrichment of ADRLEYSRTGL [MMUT_Y287_G284R] is greater than or equal to 0.5 Not met

Is phosphorylation enrichment at least 0.5? Consider EKMWSYTKSAE [GRIA3_Y705_M706T] Not met

Form field: phosphorylation enrichment at least 0.5? Entry: WAFNLYDINKD [KCNIP3_Y174] Met

Quick check: does HLWRIYYDITD [MMP27_Y307] have phosphorylation enrichment greater than or equal to 0.5? Met

Does phosphorylation enrichment meet or surpass 0.5 for HGEAVYSRDCV [XPC_Y676_R671H] ? Met

Decide: is the reported value of phosphorylation enrichment for GYEEAYSVFKK [PAFAH1B1_Y28] equal to or greater than 0.5? Met

Evaluate SGVSFYINLCQ [IGF2R_Y2025_N2020S_YF] : phosphorylation enrichment at minimum 0.5? Not met

Decide: phosphorylation enrichment of GRVLGYGTFGK [FLT4_Y853_A855T] >= 0.5? Met

Could you please find out whether DRLAVYIDRVS [LMNA_Y45_R50S] has phosphorylation enrichment that meets 0.5 or exceeds it? Not met

Hey, just so you know, these numbers are from the supplement of paper PMC10065799.
